Field: ΔTm at 1000 µM. Provide a value for each of the compounds that follow.
- target entity: TbINO1 (Trypanosoma brucei brucei, UniProt Q5QQ46)
- Sequence (Q5QQ46 whole entry): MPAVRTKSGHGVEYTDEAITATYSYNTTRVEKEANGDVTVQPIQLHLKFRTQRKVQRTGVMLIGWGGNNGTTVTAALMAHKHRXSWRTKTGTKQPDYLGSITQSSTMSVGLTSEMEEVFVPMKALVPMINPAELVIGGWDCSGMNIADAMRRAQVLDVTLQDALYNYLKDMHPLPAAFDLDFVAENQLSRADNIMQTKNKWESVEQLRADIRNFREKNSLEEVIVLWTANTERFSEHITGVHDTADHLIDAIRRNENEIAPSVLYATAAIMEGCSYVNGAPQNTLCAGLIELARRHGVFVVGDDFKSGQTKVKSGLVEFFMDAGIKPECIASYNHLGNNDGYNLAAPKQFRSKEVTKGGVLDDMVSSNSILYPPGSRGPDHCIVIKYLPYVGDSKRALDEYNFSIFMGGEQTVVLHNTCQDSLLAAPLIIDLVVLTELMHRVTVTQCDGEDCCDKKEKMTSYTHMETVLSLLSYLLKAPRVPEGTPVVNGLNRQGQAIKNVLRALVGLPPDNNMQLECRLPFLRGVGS
- method: biochemical
- Format: binding
- assay conditions: read-out: TbIno1 Tm shift [°C]
Returns: string containing the numeric result and its unit.

May I ask what ΔTm at 1000 µM has been recorded for COC(=O)C1NCCS1 (stereo not shown) ?
2.81 °C

May I ask what ΔTm at 1000 µM has been recorded for OCc1ccc(-c2ccco2)cc1 [compound 383, [4-(2-furyl)phenyl]methanol] ?
3.45 °C

May I ask what ΔTm at 1000 µM has been recorded for `O=C(O)CCC(=O)c1cccs1` ?
2.58 °C

May I ask what ΔTm at 1000 µM has been recorded for `Cn1c(CO)cc2sccc21` ?
1.54 °C

May I ask what ΔTm at 1000 µM has been recorded for Cc1nc(C(N)=S)c[nH]1 [compound 135, 2-methyl-1H-imidazole-4-carbothioamide] ?
1.74 °C

May I ask what ΔTm at 1000 µM has been recorded for COC(=O)c1ccoc1C [compound 132, methyl 2-methyl-3-furoate] ?
1.64 °C

May I ask what ΔTm at 1000 µM has been recorded for `O=C(O)c1sccc1-n1cccc1` ?
2.78 °C

May I ask what ΔTm at 1000 µM has been recorded for `Cc1ccc(CO)o1` ?
3.79 °C

May I ask what ΔTm at 1000 µM has been recorded for `O=C(O)c1cc2sccc2[nH]1` ?
2.29 °C

May I ask what ΔTm at 1000 µM has been recorded for O=C1CC(c2ccccc2)=NO1 [compound 272, 3-phenyl-4,5-dihydroisoxazol-5-one] ?
3.56 °C
